System: HeLa human cervical cancer cells
experiment-description: cells
Set-up: cellular lipid droplet reduction, fluorescence imaging high-content phenotypic screen
test-conditions: 24 h, lipid droplet reduction in HeLa
Experimental: The LD reduction activity of these analogues (1–20) was initially evaluated in human cervical cancer HeLa cells at a fixed concentration (10 μM each) to determine the efficacy of LD reduction. In addition, potency was determined by measuring the half-maximal inhibitory concentration (IC50) (Supplementary Table 1). Compounds with high cytotoxicity and low water solubility were excluded during high-content phenotypic screening. […]
metric-name: inhibition at 10 µM (%)
Form entry: value (%) — number only.

Study these solved cases before continuing.
N#Cc1cccc(-n2cc(-c3ccc4cc(-c5cccc(O)c5)ccc4n3)nn2)c1 [compound 8, 8]; -7.1
Oc1cccc(-c2ccc3nc(-c4cn(-c5ccccc5C(F)(F)F)nn4)ccc3c2)c1 [compound 4, SB2301]; 64.5
COc1ccccc1-n1cc(-c2ccc3cc(-c4cccc(O)c4)ccc3n2)nn1 [compound 1, 1]; 50
Oc1cccc(-c2ccc3nc(-c4cn(-c5ccccc5O)nn4)ccc3c2)c1 [compound 13, 13]; 12.7
COc1ccc(-n2cc(-c3ccc4cc(-c5cccc(O)c5)ccc4n3)nn2)cc1 [compound 3, 3]; 19
N#Cc1ccccc1-n1cc(-c2ccc3cc(-c4cccc(O)c4)ccc3n2)nn1 [compound 7, 7]; 30.4

Let's switch to this compound now.
inhibition at 10 µM for HeLa human cervical cancer cells with input Oc1cccc(-c2ccc3nc(-c4cn(-c5cccc(F)c5)nn4)ccc3c2)c1 [compound 11, 11] equals 19.2
